- System: antibodies in sera from SARS patients (sera 1a, 1b, 2, 6, 37, 62, London, SARS-yellow, SARS-green)
- Format: binding, human
- Parameters: unit not given here
Each record is given Condition met if its reported Binding of serum 37 to looped/cyclic peptides of protein N of SARS-CoV Urbani is strictly below 0.7. Records at or above 0.7 are given Condition not met.

1. ARPKQRRPQGLPNNT | Condition met
2. SRNSTPGSSRGNSPA | Condition met
3. EELRFPRGQGVPINT | Condition not met
4. YLGTGPEASLPYGAN | Condition not met
5. SSRSSSRSRGNSRNS | Condition met

In plain terms, does EPKKDKKKKTDEAQP come in under 0.7 for Binding of serum 37 to looped/cyclic peptides of protein N of SARS-CoV Urbani?
Condition met

In plain terms, does PSASAFFGMSRIGME come in under 0.7 for Binding of serum 37 to looped/cyclic peptides of protein N of SARS-CoV Urbani?
Condition met

In plain terms, does GQTVTKKSAAEASKK come in under 0.7 for Binding of serum 37 to looped/cyclic peptides of protein N of SARS-CoV Urbani?
Condition met

In plain terms, does SSSRSRGNSRNSTPG come in under 0.7 for Binding of serum 37 to looped/cyclic peptides of protein N of SARS-CoV Urbani?
Condition met

In plain terms, does RSRGNSRNSTPGSSR come in under 0.7 for Binding of serum 37 to looped/cyclic peptides of protein N of SARS-CoV Urbani?
Condition met

In plain terms, does MDDFSRQLQNSMSGA come in under 0.7 for Binding of serum 37 to looped/cyclic peptides of protein N of SARS-CoV Urbani?
Condition met

In plain terms, does QPTVTLLPAADMDDF come in under 0.7 for Binding of serum 37 to looped/cyclic peptides of protein N of SARS-CoV Urbani?
Condition met

The reported numbers originate from patent US20070128217A1.
